Please respond with reported EC50 hGIP R [pM], cAMP formation for every item in the list.
test_system: T1, human GIP receptor (human, UniProt P48546 22-466)
T1 sequence (looked up): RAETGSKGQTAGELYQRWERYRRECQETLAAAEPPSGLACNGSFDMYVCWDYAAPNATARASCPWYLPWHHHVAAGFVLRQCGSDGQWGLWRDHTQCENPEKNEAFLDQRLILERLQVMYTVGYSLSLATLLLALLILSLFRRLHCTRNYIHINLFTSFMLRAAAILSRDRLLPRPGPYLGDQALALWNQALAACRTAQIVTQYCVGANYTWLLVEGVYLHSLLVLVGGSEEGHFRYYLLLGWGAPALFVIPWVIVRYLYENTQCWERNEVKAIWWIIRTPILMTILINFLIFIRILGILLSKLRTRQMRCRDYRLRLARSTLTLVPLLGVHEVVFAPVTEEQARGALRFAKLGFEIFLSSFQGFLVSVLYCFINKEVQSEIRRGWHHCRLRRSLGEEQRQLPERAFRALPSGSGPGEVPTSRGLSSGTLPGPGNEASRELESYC
assay_notes: cell-based or functional assay
Non-standard residues stand in square brackets, D forms with d. No end group written: not given here. d(αMeK) = C[C@@](N)(CCCCN)C(=O)O; αMeK = C[C@](N)(CCCCN)C(=O)O; Aib = CC(C)(N)C(=O)O
One number for each entry, in pM.

Worked cases, EC50 hGIP R [pM], cAMP formation given:
binder: Y[Aib]EGTFTSDLSIQLEEEAVRLFIEWLKAGGPSSGAPPPS-NH2 [SEQ ID NO: 15]
measurement: 7.3
//
binder: Y[Aib]EGTFTSDLSIQLEKEAVRLFIEWLKAGGPSSGAPPPS-NH2 [SEQ ID NO: 20]
measurement: 3.9
//
binder: Y[Aib]EGTFTSDLSIQLEEEAV[αMeK]LFIEWLKAGGPSSGAPPPS-NH2 [SEQ ID NO: 17]
measurement: 1.8

Quick batch: EC50 hGIP R [pM], cAMP formation for everything below.
1. Y[Aib]EGTFTSDLSIQMEKEAVRLFIEWLKAGGPSSGAPPPS-NH2 [SEQ ID NO: 9]
2. YXEGTFTSDLSIQMEEEAVRLFIEWLKAGGPSSGAPPPS (Aib at position 2; C-terminal amide (-NH2)) [SEQ ID NO: 8]
3. Y[Aib]EGTFTSDLSIQLEEEAV[d(αMeK)]LFIEWLKAGGPSSGAPPPS-NH2 [SEQ ID NO: 18]

[3.1, 9.8, 36.1]

Where do these numbers come from? They come from patent US20150166627A1.
